studySystem: DNA gyrase (Escherichia coli, UniProt P0AES4+P0AES6)
methodNotes: Inhibition of Escherichia coli DNA gyrase super-coiling activity using pBR322 DNA as substrate after 30 mins by fluorescence assay
quantityMeasured: IC50

So, `CCn1cc(-c2nc(NC(=O)c3ccccc3)n[nH]2)c(=O)c2cc(Br)c(C)nc21` ? Its IC50 was 4.28 µM

###

System: Escherichia coli
methodNotes: Antibacterial activity against Escherichia coli after 3 to 7 days by cup diffusion method
Assay type: functional
quantityMeasured: MIC

Field: example entries. Status: answers known.
smilesRepr	MIC
CCn1cc(-c2nc(NC(=O)c3ccc(Cl)cc3)n[nH]2)c(=O)c2ccc(C)nc21	>=0.031 - 32 ug ml-1
CCn1cc(-c2nc(/N=C/c3ccc(OC)cc3)n[nH]2)c(=O)c2ccc(C)nc21	>=0.031 - 32 ug ml-1
CCn1cc(-c2nc(/N=C/c3ccc(Cl)cc3)n[nH]2)c(=O)c2ccc(C)nc21	>=0.031 - 32 ug ml-1
CCn1cc(-c2nc(NC(=O)c3ccc(OC)cc3)n[nH]2)c(=O)c2ccc(C)nc21	>=0.031 - 32 ug ml-1
CCn1cc(-c2nc(/N=C/c3ccc(Br)cc3)n[nH]2)c(=O)c2ccc(C)nc21	>=0.031 - 32 ug ml-1

So, `CCn1cc(-c2nc(/N=C/c3ccc(F)cc3)n[nH]2)c(=O)c2ccc(C)nc21` ? Its MIC was >=0.031 - 32 ug ml-1

So, `CCn1cc(-c2nc(/N=C/c3ccccc3O)n[nH]2)c(=O)c2ccc(C)nc21` ? Its MIC was >=0.031 - 32 ug ml-1

###

Quick list: MIC per entry.
Test system: Staphylococcus aureus
methodNotes: Antibacterial activity against Staphylococcus aureus
Format: functional

Field: example entries. Status: answers known.
smilesRepr	result
O=C(O)c1cn(C2CC2)c2c(cc(F)c3nn(CN4CCCCC4)c(=S)n32)c1=O	0.125 to 8 µg/mL
CCn1cc(C(=O)O)c(=O)c2cc(F)c(N3CCN(Cn4nc(N5CCN(c6ccc([N+](=O)[O-])cc6)CC5)n(-c5ccccc5)c4=S)CC3)cc21	0.03 to 0.99 µg/mL
CCn1cc(C(=O)O)c(=O)c2cc(F)c(N3CCN(Cn4nc(N5CCN(c6ccc([N+](=O)[O-])cc6)CC5)n(Cc5ccccc5)c4=O)CC3)cc21	0.03 to 0.99 µg/mL
COc1cccc2c(-c3ccccc3)cc(=O)n(Cc3nnc(S)n3N)c12	8 to 256 µg/mL

So, `CCn1cc(C(=O)O)c(=O)c2cc(F)c(N3CCN(Cn4nc(N5CCN(c6ccc([N+](=O)[O-])cc6)CC5)n(Cc5ccccc5)c4=S)CC3)cc21` ? Its MIC was 0.03 to 0.99 µg/mL

So, `CN(C)Cn1nc2c(F)cc3c(=O)c(C(=O)O)cn(C4CC4)c3n2c1=S` ? Its MIC was 4 to 32 µg/mL

So, `O=C(O)c1cn(C2CC2)c2c(cc(F)c3nn(CN4CCCC4)c(=S)n32)c1=O` ? Its MIC was 0.125 to 8 µg/mL

So, `Cc1ccc2c(c1)c(-c1ccccc1)cc(=O)n2Cc1nnc(S)n1N` ? Its MIC was 8 to 256 µg/mL

So, `CCn1c(N2CCN(c3ccc([N+](=O)[O-])cc3)CC2)nn(CN2CCN(c3cc4c(cc3F)c(=O)c(C(=O)O)cn4CC)CC2)c1=S` ? Its MIC was 0.03 to 0.99 µg/mL

###

Test system: Staphylococcus aureus
methodNotes: Antibacterial activity against Staphylococcus aureus
Assay type: functional
quantityMeasured: MIC

Field: example entries. Status: answers known.
compound	MIC
COc1ccc2c(-c3ccccc3)cc(=O)n(Cc3nnc(S)n3N)c2c1	8 to 256 µg/mL
Nn1c(S)nnc1Cn1c(=O)cc(-c2ccccc2)c2cccc(Cl)c21	8 to 256 µg/mL
CCN(CC)Cn1nc2c(F)cc3c(=O)c(C(=O)O)cn(C4CC4)c3n2c1=S	4 to 32 µg/mL
Nn1c(S)nnc1Cn1c(=O)cc(-c2ccccc2)c2ccccc21	8 to 256 µg/mL
Nn1c(S)nnc1Cn1c(=O)cc(-c2ccccc2)c2cc(Cl)ccc21	8 to 256 µg/mL
CCN1CCN(Cn2nc3c(F)cc4c(=O)c(C(=O)O)cn(C5CC5)c4n3c2=S)CC1	0.125 to 8 µg/mL

Noted MIC for `CN1CCN(Cn2nc3c(F)cc4c(=O)c(C(=O)O)cn(C5CC5)c4n3c2=S)CC1` , tested on Staphylococcus aureus: 0.125 to 8 µg/mL

Noted MIC for `COc1ccc2c(c1)c(-c1ccccc1)cc(=O)n2Cc1nnc(S)n1N` , tested on Staphylococcus aureus: 8 to 256 µg/mL

Noted MIC for `Cc1ccc2c(-c3ccccc3)cc(=O)n(Cc3nnc(S)n3N)c2c1` , tested on Staphylococcus aureus: 8 to 256 µg/mL

Noted MIC for CC1CNCCN1Cn1nc2c(F)cc3c(=O)c(C(=O)O)cn(C4CC4)c3n2c1=S (stereo not given) , tested on Staphylococcus aureus: 0.125 to 0.5 µg/mL

###

System: Staphylococcus aureus
methodNotes: Antibacterial activity against Staphylococcus aureus
Assay type: functional
Quick list: MIC per entry.

Field: example entries. Status: answers known.
compound	quantityMeasured	result
CC1(C)S[C@@H]2[C@H](NC(=O)[C@H](N)c3ccccc3)C(=O)N2[C@H]1C(=O)O [AMPICILLIN]	MIC	10 to 128 µg/mL
Nn1c(S)nnc1Cn1c(=O)cc(-c2ccccc2)c2ccc(Cl)cc21	MIC	8 to 256 µg/mL
CCn1cc(C(=O)O)c(=O)c2cc(F)c(N3CCN(Cn4nc(N5CCN(c6ccc([N+](=O)[O-])cc6)CC5)n(-c5ccc(F)cc5)c4=S)CC3)cc21	MIC	0.03 to 0.99 µg/mL
CCn1cc(C(=O)O)c(=O)c2cc(F)c(N3CCN(Cn4nc(N5CCN(c6ccc([N+](=O)[O-])cc6)CC5)n(-c5ccccc5)c4=O)CC3)cc21	MIC	0.03 to 0.99 µg/mL
Cc1cccc2c(-c3ccccc3)cc(=O)n(Cc3nnc(S)n3N)c12	MIC	8 to 256 µg/mL

Switching to the query record.
So, `O=C(O)c1cn(C2CC2)c2c(cc(F)c3nn(CN4CCOCC4)c(=S)n32)c1=O` ? Its MIC was 0.125 to 8 µg/mL
